# Tested on: Plasmodium falciparum
# assay protocol: Antimalarial activity against chloroquine-resistant Plasmodium falciparum W2
# Format: functional, organism-based
Cut-off 70 nM on IC90: below means Yes, at or above means No.

O=C(NCCCCCNc1ccnc2cc(Cl)ccc12)C12CC3CC(CC(C3)C1)C2 : No
CC(=O)O[C@@H]1CC[C@@]2(C)[C@@H](C1)C[C@@H](OC(C)=O)[C@@H]1[C@@H]2C[C@H](OC(C)=O)[C@]2(C)[C@@H]([C@H](C)CCCNc3ccnc4cc(Cl)ccc34)CC[C@@H]12 : No
CCCNC(=O)CC[C@@H](C)[C@H]1CC[C@H]2[C@@H]3[C@H](OC(C)=O)C[C@@H]4C[C@H](Nc5ccnc6cc(Cl)ccc56)CC[C@]4(C)[C@H]3C[C@H](OC(C)=O)[C@]12C : No
COC(=O)CC[C@@H](C)[C@H]1CC[C@H]2[C@@H]3[C@H](OC(C)=O)C[C@@H]4C[C@H](Nc5ccnc6cc(Cl)ccc56)CC[C@]4(C)[C@H]3C[C@H](OC(C)=O)[C@]12C : No
O=C(CC12CC3CC(CC(C3)C1)C2)NCCCNc1ccnc2cc(Cl)ccc12 : No
O=C(CC12CC3CC(CC(C3)C1)C2)NCCCCCNc1ccnc2cc(Cl)ccc12 : No
COC(=O)CC[C@@H](C)[C@H]1CC[C@H]2[C@@H]3[C@H](OC(C)=O)C[C@@H]4C[C@H](OCCNc5ccnc6cc(Cl)ccc56)CC[C@]4(C)[C@H]3C[C@H](OC(C)=O)[C@]12C : No
O=C(NCCNc1ccnc2cc(Cl)ccc12)C12CC3CC(CC(C3)C1)C2 : No
COC(=O)CC[C@@H](C)[C@H]1CC[C@H]2[C@@H]3[C@H](OC(C)=O)C[C@@H]4C[C@H](OCCNCCNc5ccnc6cc(Cl)ccc56)CC[C@]4(C)[C@H]3C[C@H](OC(C)=O)[C@]12C : Yes
Clc1ccc2c(NCCCNCCC34CC5CC(CC(C5)C3)C4)ccnc2c1 : Yes
O=C(CC12CC3CC(CC(C3)C1)C2)NCCNc1ccnc2cc(Cl)ccc12 : No
C[C@@H]1CC[C@H]2[C@@H](C)C(=O)O[C@@H]3O[C@@]4(C)CC[C@@H]1[C@]32OO4 : Yes
Clc1ccc2c(NCCN(CCC34CC5CC(CC(C5)C3)C4)CCC34CC5CC(CC(C5)C3)C4)ccnc2c1 : No
COC(=O)CC[C@@H](C)[C@H]1CC[C@H]2[C@@H]3[C@H](OC(C)=O)C[C@@H]4C[C@@H](NCCNc5ccnc6cc(Cl)ccc56)CC[C@]4(C)[C@H]3C[C@H](OC(C)=O)[C@]12C : Yes
O[C@@H](c1cc(C(F)(F)F)nc2c(C(F)(F)F)cccc12)[C@H]1CCCCN1 : Yes
Clc1ccc2c(NCCNCCC34CC5CC(CC(C5)C3)C4)ccnc2c1 : Yes
CC(=O)O[C@@H]1CC[C@@]2(C)[C@@H](C1)C[C@@H](OC(C)=O)[C@@H]1[C@@H]2C[C@H](OC(C)=O)[C@]2(C)[C@@H]([C@H](C)CCCNCCNc3ccnc4cc(Cl)ccc34)CC[C@@H]12 : Yes
Clc1ccc2c(NCCNCC34CC5CC(CC(C5)C3)C4)ccnc2c1 : Yes
COC(=O)CC[C@@H](C)[C@H]1CC[C@H]2[C@@H]3[C@H](OC(C)=O)C[C@@H]4C[C@H](NCCNc5ccnc6cc(Cl)ccc56)CC[C@]4(C)[C@H]3C[C@H](OC(C)=O)[C@]12C : Yes
Clc1ccc2c(NCCCCCNCCC34CC5CC(CC(C5)C3)C4)ccnc2c1 : No
CCN(CC)CCCC(C)Nc1ccnc2cc(Cl)ccc12 (stereo unspecified) : No
Clc1ccc2c(NCCCCCNCC34CC5CC(CC(C5)C3)C4)ccnc2c1 : No
O=C(NCCCNc1ccnc2cc(Cl)ccc12)C12CC3CC(CC(C3)C1)C2 : No
Clc1ccc2c(NCCCN(CCC34CC5CC(CC(C5)C3)C4)CCC34CC5CC(CC(C5)C3)C4)ccnc2c1 : No
Clc1ccc2c(NCCCNCC34CC5CC(CC(C5)C3)C4)ccnc2c1 : Yes
